Reported self-splicing fitness (ln) by item:
# assay protocol: self-splicing fitness, log relative to wild type (ln ratio); higher = more splicing; Tetrahymena group I intron in knt gene, E. coli kanamycin selection, DiMSum; sequences stand for … in CUCUCU…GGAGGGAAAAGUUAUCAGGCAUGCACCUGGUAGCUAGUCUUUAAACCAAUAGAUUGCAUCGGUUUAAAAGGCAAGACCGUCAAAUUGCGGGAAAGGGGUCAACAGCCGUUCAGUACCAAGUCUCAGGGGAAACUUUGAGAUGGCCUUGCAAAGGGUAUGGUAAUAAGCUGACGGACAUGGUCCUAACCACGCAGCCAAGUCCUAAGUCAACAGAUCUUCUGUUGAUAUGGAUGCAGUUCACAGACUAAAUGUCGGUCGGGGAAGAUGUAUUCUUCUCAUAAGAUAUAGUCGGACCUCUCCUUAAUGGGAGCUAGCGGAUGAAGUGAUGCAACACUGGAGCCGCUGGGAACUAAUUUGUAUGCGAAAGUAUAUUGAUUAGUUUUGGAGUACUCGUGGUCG;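 also: selection with 25 µg/mL kanamycin versus none on LB agar overnight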
# conditions: 30 °C
quantity measured: self-splicing fitness (ln)

seq string	reported value
GUCGAGCAAUAUUACGAAUU	-3.05
AUUCAGCAAUAUUACGCUUU	-0.755
UCCAAGCAAUAUUACGUAAU	-1.94
GAAUAGCAAUAUUACGUGCC	-0.897
ACACAGCAAUAUUACGGUUC	-3.81
CCCCAGCAAUAUUACGAAGG	-4.06
CGCCAGCAAUAUUACGGCAA	-0.604
CUAAAGCAAUAUUACGUUGU	-3.91
CUGUAGCAAUAUUACGGGGC	-4.95
UCCGAGCAAUAUUACGCGGU	-3.33
GUCUAGCAAUAUUACGGUAC	-0.985
GGCUAGCAAUAUUACGAUAU	-1.79
GCGGAGCAAUAUUACGGUGC	-3.56
CAAGAGCAAUAUUACGAUUG	-2.26
CAUUAGCAAUAUUACGGCAU	-2.99
AUUCAGCAAUAUUACGCUGA	-3.06
AAUGAGCAAUAUUACGUCGU	-2.77
GGUAAGCAAUAUUACGUGAG	-1.03
CCGGAGCAAUAUUACGAUUA	-3.79
GAUAAGCAAUAUUACGUAUG	-1.53
UCGCAGCAAUAUUACGUAUU	-3.64
GGCGAGCAAUAUUACGCAAG	-2.96
CCAUAGCAAUAUUACGCAUC	-3.39
CUCAAGCAAUAUUACGGGCA	-2.74
CGUGAGCAAUAUUACGUUAC	-3.96
ACCUAGCAAUAUUACGUCGC	-2.66
UGCGAGCAAUAUUACGUCGU	-3.64
CGUUAGCAAUAUUACGAACA	-0.595
CCAGAGCAAUAUUACGAAAG	-2.45
UACAAGCAAUAUUACGAUAU	-2.75
CUAGAGCAAUAUUACGCCUC	-3.5
CGAUAGCAAUAUUACGAACA	-2.13
AAGGAGCAAUAUUACGCUGC	-3.07
CGUCAGCAAUAUUACGGAGG	-1.93
UAACAGCAAUAUUACGAACU	-0.722
UAGCAGCAAUAUUACGGCAG	-0.659
UAUGAGCAAUAUUACGUCAC	-4.15
AGUUAGCAAUAUUACGCUUU	-2.56
UUAAAGCAAUAUUACGUCAC	-2.97
CCGCAGCAAUAUUACGCGUU	-3.51
GUAUAGCAAUAUUACGCUGC	-2.6
ACUAAGCAAUAUUACGGGUA	-1.77
GUUGAGCAAUAUUACGGCAU	-1.32
GGGCAGCAAUAUUACGCACU	-1.6
ACGAAGCAAUAUUACGAUGU	-3.96
GUAAAGCAAUAUUACGCGUG	-1.05
GGAAAGCAAUAUUACGUACC	-2.13
UAAAAGCAAUAUUACGCAGG	-1.55
ACGCAGCAAUAUUACGUAUC	-2.47
AGCUAGCAAUAUUACGCUCA	-1.67
GAACAGCAAUAUUACGCUGG	-1.98
GCUGAGCAAUAUUACGGGUU	-3.5
UGCCAGCAAUAUUACGUGUG	-1.49
UCACAGCAAUAUUACGUAUA	-2.64
UGGCAGCAAUAUUACGGGUA	-0.841
AGUCAGCAAUAUUACGCUAA	-0.794
UACAAGCAAUAUUACGGGGU	-3.88
AGGUAGCAAUAUUACGCCUG	-0.743
UAUAAGCAAUAUUACGCGUC	-3.23
UCAGAGCAAUAUUACGCAAA	-1.85
CUGUAGCAAUAUUACGCGUG	-1.41
GAGUAGCAAUAUUACGACUA	0.106
ACCAAGCAAUAUUACGACUG	-1.11
AACGAGCAAUAUUACGUAAU	-3.78
UAACAGCAAUAUUACGGUCU	-1.5
GGAGAGCAAUAUUACGGCUC	-1.76
UAAAAGCAAUAUUACGGAUC	-2.28
